The reader will find reported pKi values listed item by item below.
MEASURED ON: mCB2 (Mus musculus)
Construct: expressed in transfected cells; host or cells: HEK293
Sequence (P47936 whole entry): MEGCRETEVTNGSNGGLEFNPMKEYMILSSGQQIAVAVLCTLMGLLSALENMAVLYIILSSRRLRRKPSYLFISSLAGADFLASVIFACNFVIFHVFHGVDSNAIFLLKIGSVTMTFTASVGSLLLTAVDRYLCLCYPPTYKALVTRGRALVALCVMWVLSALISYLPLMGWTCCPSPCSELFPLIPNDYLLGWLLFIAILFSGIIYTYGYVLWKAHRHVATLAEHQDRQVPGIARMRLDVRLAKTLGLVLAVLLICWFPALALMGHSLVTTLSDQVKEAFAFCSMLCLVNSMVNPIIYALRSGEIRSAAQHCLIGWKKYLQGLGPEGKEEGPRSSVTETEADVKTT
ASSAY EXPLANATION: mCB2 competition-equilibrium binding with [3H]CP-55,940, HEK293 membranes
pKi: −log10 of the molar value.
PROPERTY LABEL: pKi

1) CCCCCCOC(=O)C(C)(C)c1cc(O)c2c(c1)OC(C)(C)[C@@H]1CCC(=O)C[C@@H]21 [Compound 34d] : 7.52
2) CCCOC(=O)C(C)(C)c1cc(O)c2c(c1)OC(C)(C)[C@@H]1CCC(=O)C[C@@H]21 [Compound 34b] : 7.49
3) CCC[C@@H](C)OC(=O)C(C)(C)c1cc(O)c2c(c1)OC(C)(C)[C@@H]1CCC(=O)C[C@@H]21 [Compound 34f] : 7.44
4) CCCCCCC(C)(C)c1cc(O)c2c(c1)OC(C)(C)[C@@H]1CCOC(=O)C[C@@H]21 : 8.10
5) CC(C)(C(=O)OCCCCN=[N+]=[N-])c1cc(O)c2c(c1)OC(C)(C)[C@@H]1CCC(=O)C[C@@H]21 : 8.35
6) CC(C)(C(=O)OCCCCBr)c1cc(O)c2c(c1)OC(C)(C)[C@@H]1CCC(=O)C[C@@H]21 : 8.74
7) CC(C)(C(=O)OCCCCO[N+](=O)[O-])c1cc(O)c2c(c1)OC(C)(C)[C@@H]1CCC(=O)C[C@@H]21 : 8.66
8) CC(C)(C(=O)OCCCI)c1cc(O)c2c(c1)OC(C)(C)[C@@H]1CCC(=O)C[C@@H]21 : 8.92
